measured_target: T1, human CLDN6 fused to GFP, expressed on engineered HEK293T cells (HEK293T-CLDN6-mGFP) (human, UniProt P56747 1-220)
T1 construct: It calls residues 1-21 a signal peptide; also called Claudin-6; HEK293T-CLDN6-mGFP Artificial CLDN6+; not shown: mGFP tag
T1 sequence: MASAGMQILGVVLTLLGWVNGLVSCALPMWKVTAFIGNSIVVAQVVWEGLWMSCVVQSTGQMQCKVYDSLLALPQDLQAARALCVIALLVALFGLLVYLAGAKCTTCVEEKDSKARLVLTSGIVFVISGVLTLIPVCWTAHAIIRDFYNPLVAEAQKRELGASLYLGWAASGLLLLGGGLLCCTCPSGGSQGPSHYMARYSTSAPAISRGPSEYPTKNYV
protocol_details: FACS, 0.3 µg Ab, 293T clone with human CLDN6
property_measured: FACS fluorescence
Give bare numbers.

Known results for binders:
AB1-6 (antibody, V domains shown, also called Humanized AB 1-6) VH: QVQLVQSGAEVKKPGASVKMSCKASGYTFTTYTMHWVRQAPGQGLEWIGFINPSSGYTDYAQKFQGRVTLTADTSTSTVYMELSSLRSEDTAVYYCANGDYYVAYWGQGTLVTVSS VL: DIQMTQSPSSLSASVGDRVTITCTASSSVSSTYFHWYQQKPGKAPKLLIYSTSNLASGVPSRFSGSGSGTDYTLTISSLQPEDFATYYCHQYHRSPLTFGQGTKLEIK ... 120000
AB3-chim (antibody, V domains shown, 'chim' is the pre-humanized form (parental variable regions); also called pre-humanized (chimeric) form of AB3) VH: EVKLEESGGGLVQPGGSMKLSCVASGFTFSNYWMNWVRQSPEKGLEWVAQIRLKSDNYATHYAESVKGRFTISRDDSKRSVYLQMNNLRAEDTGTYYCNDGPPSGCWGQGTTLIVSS VL: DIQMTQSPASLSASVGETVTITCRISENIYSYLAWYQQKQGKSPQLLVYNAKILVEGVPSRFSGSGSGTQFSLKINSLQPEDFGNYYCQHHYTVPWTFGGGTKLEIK ... 267000
AB4-5 (antibody, V domains shown, also called Humanized AB 4-5) VH: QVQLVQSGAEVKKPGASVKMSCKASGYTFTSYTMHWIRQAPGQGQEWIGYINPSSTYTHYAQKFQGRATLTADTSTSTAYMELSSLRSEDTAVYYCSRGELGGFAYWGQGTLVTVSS VL: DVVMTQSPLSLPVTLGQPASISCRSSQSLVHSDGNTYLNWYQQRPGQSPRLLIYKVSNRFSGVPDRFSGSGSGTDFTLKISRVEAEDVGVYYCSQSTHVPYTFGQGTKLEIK ... 16800
AB4-8 (antibody, V domains shown, Humanized; also called Humanized AB 4-8) VH: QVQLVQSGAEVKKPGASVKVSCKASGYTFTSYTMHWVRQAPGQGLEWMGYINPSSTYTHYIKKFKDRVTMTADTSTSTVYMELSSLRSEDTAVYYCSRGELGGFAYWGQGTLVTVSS VL: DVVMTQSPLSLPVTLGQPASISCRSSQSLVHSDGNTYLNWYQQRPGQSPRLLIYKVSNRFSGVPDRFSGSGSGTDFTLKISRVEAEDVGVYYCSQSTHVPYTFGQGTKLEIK ... 49300
AB4-12 (antibody, V domains shown, Humanized; also called Humanized AB 4-12) VH: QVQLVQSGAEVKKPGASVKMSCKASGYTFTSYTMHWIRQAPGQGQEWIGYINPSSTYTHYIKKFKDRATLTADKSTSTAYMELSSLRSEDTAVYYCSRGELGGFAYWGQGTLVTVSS VL: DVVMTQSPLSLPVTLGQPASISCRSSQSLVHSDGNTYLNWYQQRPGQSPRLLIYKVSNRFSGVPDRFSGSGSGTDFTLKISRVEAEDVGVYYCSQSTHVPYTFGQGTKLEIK ... 71100

Please state, for each entry, its recorded FACS fluorescence.
1. AB3-2 (antibody, V domains shown, also called Humanized AB 3-2) VH: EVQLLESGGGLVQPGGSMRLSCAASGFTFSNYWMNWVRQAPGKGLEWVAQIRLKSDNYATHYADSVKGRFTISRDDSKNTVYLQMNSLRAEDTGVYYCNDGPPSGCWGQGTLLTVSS VL: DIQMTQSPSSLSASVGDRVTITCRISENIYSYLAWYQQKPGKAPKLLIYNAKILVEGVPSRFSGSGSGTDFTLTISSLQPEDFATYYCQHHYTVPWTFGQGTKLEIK
2. AB1-4 (antibody, V domains shown, also called Humanized AB 1-4) VH: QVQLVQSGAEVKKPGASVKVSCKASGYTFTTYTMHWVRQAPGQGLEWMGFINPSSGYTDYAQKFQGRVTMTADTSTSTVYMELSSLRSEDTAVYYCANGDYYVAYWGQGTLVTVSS VL: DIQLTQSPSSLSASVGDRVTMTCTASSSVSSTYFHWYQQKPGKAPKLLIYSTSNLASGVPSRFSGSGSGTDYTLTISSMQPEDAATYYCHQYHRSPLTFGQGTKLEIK
3. AB1-5 (antibody, V domains shown, also called Humanized AB 1-5) VH: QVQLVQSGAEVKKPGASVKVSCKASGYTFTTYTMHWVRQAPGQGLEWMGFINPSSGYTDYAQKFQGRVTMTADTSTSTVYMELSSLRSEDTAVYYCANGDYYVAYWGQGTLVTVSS VL: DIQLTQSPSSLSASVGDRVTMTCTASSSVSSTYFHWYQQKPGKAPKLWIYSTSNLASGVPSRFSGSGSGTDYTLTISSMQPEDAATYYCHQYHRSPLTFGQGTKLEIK
4. AB9-chim (antibody, V domains shown, 'chim' is the pre-humanized form (parental variable regions); also called pre-humanized (chimeric) form of AB9) VH: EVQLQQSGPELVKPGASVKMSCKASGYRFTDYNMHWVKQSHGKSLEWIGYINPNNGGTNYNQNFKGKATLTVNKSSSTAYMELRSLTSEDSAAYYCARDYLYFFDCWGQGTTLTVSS VL: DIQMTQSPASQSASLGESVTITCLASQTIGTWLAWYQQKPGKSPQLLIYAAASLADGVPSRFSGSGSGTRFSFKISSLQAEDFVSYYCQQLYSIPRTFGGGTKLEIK
5. AB18-6 (antibody, V domains shown, also called Humanized AB 18-6) VH: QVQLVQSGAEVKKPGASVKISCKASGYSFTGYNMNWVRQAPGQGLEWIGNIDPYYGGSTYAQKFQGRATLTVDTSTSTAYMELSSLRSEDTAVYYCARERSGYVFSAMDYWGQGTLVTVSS VL: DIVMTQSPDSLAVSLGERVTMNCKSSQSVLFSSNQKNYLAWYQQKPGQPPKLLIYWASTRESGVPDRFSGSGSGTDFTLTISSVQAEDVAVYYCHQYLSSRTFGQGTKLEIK

-- reply
[309000, 102000, 138000, 46700, 26900]
